read-out: CD40, CD40 (gene 958); assay: BSK_SAg_CD40: BioMAP Diversity Plus: SAg Assay for CD40 Biomarker Activity (AID 2283088); conditions: primary human HUVEC with PBMC; actives raise or lower the signal
Activity calls are given as the source filed them. How the source made its calls: active means hit-call score of the fitted dose curve at least 0.9, where 1 is the maximum; inactive means score below 0.9.
Log the outcome using a class from active, inactive

[[record]]
compound = "ClC1(Cl)C2(Cl)C3(Cl)C4(Cl)C(Cl)(Cl)C5(Cl)C3(Cl)C1(Cl)C5(Cl)C24Cl (centres undefined)"
class_assignment = "inactive"

[[record]]
compound = "CCNc1nc(NC(C)(C)C)nc(SC)n1"
class_assignment = "inactive"

[[record]]
compound = "CCCCCCCCC(=O)NCc1ccc(O)c(OC)c1"
class_assignment = "inactive"

[[record]]
compound = "CCOP(=S)(OCC)Oc1nc(Cl)c(Cl)cc1Cl"
class_assignment = "active"

[[record]]
compound = "C(=NC1CCCCC1)=NC1CCCCC1"
class_assignment = "active"


Exercise: For this compound, state the assay outcome: "O=C(OC1CCCCC1)c1ccccc1C(=O)OC1CCCCC1"
Solution: active

Exercise: Test call, this compound: "O=Cc1cccc(Oc2ccccc2)c1"
Solution: inactive

Exercise: So what was the verdict on "COP(=S)(OC)Oc1ccc(S(=O)(=O)N(C)C)cc1" in this test?
Solution: inactive

Exercise: Just curious, what result did CC(=O)OC(c1ccccc1)C(Cl)(Cl)Cl (centres undefined) get here?
Solution: inactive

Exercise: Please indicate how the test categorized CC12CC1(C)C(=O)N(c1cc(Cl)cc(Cl)c1)C2=O (centres undefined) .
Solution: inactive

Exercise: Call for entry "Nc1ccc(-c2ccc(N)c(Cl)c2)cc1Cl" :
Solution: inactive

Exercise: Per the records of this test, what outcome belongs to "COP(=S)(OC)Oc1cc(Cl)c(Cl)cc1Cl" ?
Solution: inactive

Exercise: Hi team, can someone confirm the assay call for "CC(=O)[O][Hg][c]1ccccc1" ?
Solution: active

Exercise: State the result this test recorded for "C[C@@H]1C[C@@H]([C@H](O)CC2CC(=O)NC(=O)C2)C(=O)[C@@H](C)C1" .
Solution: active

---

biological target: Cellular tumor antigen p53 (Homo sapiens) (UniProt P04637); experiment: TOX21_p53_BLA_p2_ratio: Tox21 HCT-116 p53 Agonism Beta-lactamase Assay, Ratio, Phase 2 (AID 2283592)
Sequence (P04637 whole entry, looked up): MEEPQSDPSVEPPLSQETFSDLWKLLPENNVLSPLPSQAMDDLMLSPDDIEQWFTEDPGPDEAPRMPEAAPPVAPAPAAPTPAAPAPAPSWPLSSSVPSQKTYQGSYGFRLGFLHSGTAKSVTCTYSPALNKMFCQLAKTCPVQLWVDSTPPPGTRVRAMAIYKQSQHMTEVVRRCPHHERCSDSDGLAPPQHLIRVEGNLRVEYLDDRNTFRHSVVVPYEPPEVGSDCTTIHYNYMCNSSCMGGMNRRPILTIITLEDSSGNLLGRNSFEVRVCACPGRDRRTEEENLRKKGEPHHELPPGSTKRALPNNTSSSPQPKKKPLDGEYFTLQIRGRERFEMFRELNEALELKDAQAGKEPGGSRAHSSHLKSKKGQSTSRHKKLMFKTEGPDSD
Results filed as inconclusive are left out. The source made the active and inactive calls. Rule for the calls: active = hit-call score of the fitted dose curve at least 0.9, where 1 is the maximum; inconclusive = response in the unintended direction; inactive = score below 0.9.
Outcome field: choose from active, inactive

[[record]]
compound = "C1CCC(NC2CCCCC2)CC1"
class_assignment = "inactive"

[[record]]
compound = "CCOP(=S)(OCC)SCSP(=S)(OCC)OCC"
class_assignment = "inactive"

[[record]]
compound = "Clc1ccc(C2(Cn3cncn3)CC(Br)CO2)c(Cl)c1 (stereo not given)"
class_assignment = "active"

[[record]]
compound = "CC(C)OC(=O)Nc1ccccc1"
class_assignment = "inactive"


Exercise: Which result was noted for this compound in the test: "O=C(OC1CCCCC1)c1ccccc1C(=O)OC1CCCCC1"
Solution: inactive

---

Assay: ATG_AP_1_CIS: Attagene CIS-FACTORIAL HepG2 Assay for human Activator Protein 1 (AP-1) (AID 2282931)
Conditions: HepG2 Attagene cis-factorial AP-1 reporter mRNA; actives raise or lower the signal
Procedure: ATG_CIS is a cell-based, multiplexed-readout assay that uses HepG2, a human liver cell line, with measurements taken at 24 hours after chemical dosing in a 24-well plate.ATG_AP_1_CIS is one of 52 assay component(s) measured or calculated from the ATG_CIS assay. […] This assay endpoint, ATG_AP_1_CIS, was analyzed with bidirectional fitting relative to DMSO as the negative control and baseline of activity. […]
Calls of active or inactive are those of the source. The calls were made as follows: active = hit-call score of the fitted dose curve at least 0.9, where 1 is the maximum; inactive = score below 0.9.
Respond only with the outcome that fits, drawn from active, inactive

[[record]]
molecule = "COP(=O)(OC)OC"
class_assignment = "inactive"

[[record]]
molecule = "Nc1ccc(Cl)cc1C(=O)c1ccccc1"
class_assignment = "inactive"

[[record]]
molecule = "CC(=O)OC(c1ccccc1)C(Cl)(Cl)Cl (configuration not stated)"
class_assignment = "inactive"


Exercise: I would be grateful if you could indicate the recorded call for "C=C(C)C(=O)[O][Sn]([CH2]CCC)([CH2]CCC)[CH2]CCC" .
Solution: active

Exercise: For this molecule, state the assay outcome: "C[C@@H](Oc1ccc(Cl)cc1Cl)C(=O)O"
Solution: inactive

Exercise: Please let me know the test result on file for "Cl/C=C/Cl" .
Solution: inactive

Exercise: Outcome? "CN(CCCC(=O)c1cccnc1)N=O"
Solution: inactive

Exercise: Any idea what this test logged for "CNC" ?
Solution: inactive

Exercise: What was the test verdict on "COP(=S)(OC)Oc1cc(Cl)c(Cl)cc1Cl" ?
Solution: active

Exercise: Check the results log: what was the call for CC1CN1P(=O)(N1CC1C)N1CC1C (configuration not stated) ?
Solution: inactive

Exercise: // return assay outcome for "ClC1=C(Cl)[C@]2(Cl)[C@H]3[C@H]([C@H]4C=C[C@H]3C4)[C@@]1(Cl)C2(Cl)Cl"
Solution: inactive

Exercise: Per the records of this test, what outcome belongs to "Cc1ccc(N)cc1Cl" ?
Solution: inactive

The origin of these recorded values is PubChem BioAssay (EPA / NIEHS).
